Origin of values: paper PMC8514580

- TARGET_OR_SYSTEM: T1, CGH-1_(248–420) K277A (C. elegans, UniProt Q95YF3 248-420, K277A)
- T1 construct: Mutant of m1 made with the MutanBEST kit; source: E. coli Gold (DE3), purified (Ni-chelating resin, SEC Superdex 75)
- T1 sequence (looked up): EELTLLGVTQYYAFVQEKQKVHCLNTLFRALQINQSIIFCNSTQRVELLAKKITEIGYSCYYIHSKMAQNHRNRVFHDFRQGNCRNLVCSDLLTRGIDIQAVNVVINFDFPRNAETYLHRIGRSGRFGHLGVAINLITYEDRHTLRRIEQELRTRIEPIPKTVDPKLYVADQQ
- ASSAY_EXPLANATION: ITC; ligand (peptide or CAR-1 fragment, 0.5 mM) injected into CGH-1_(248-420) or mutant (0.05 mM) in the cell; 20 °C; Buffer B (20 mM Tris-HCl pH 7.5, 150 mM NaCl); one-binding-site model
- CONDITION_INFO: both partners purified
QUANTITY_MEASURED: Kd

Using the record for LADPIDFDLDSDFDFAENLKLFEKDENDDQYYETVEK (Enhancer of decapping-3 (EDC-3, also called LSm16), C. elegans, FDF fragment, residues 235-271; Printed with free NH2 and COOH ends; also called EDC-3 peptide; EDC-3 FDF-FEK peptide; source: synthetic peptide (GL Biochem, Shanghai)) [EDC-3 FDF peptide (EDC-3_(235–271))] , state its measured Kd.
2740 nM
